Attribute: folding stability dG
B1: EEHEE_rd4_0647 (parent)
chain: MQVTWGNVTVTFSNPEEAKKYAEKVARKLGGQVELHNGQFRIK

- Variants of: B1
- assay_explanation: folding stability dG (cDNA display proteolysis); higher = more stable
- conditions: PBS, room temperature

[
  {
    "variant_description": "A26Y",
    "folding stability dG": "0.807 kcal/mol"
  },
  {
    "variant_description": "G38E",
    "folding stability dG": "1.44 kcal/mol"
  },
  {
    "variant_description": "L29D",
    "folding stability dG": "0.761 kcal/mol"
  },
  {
    "variant_description": "T9S",
    "folding stability dG": "2.26 kcal/mol"
  },
  {
    "variant_description": "K43W",
    "folding stability dG": "2.67 kcal/mol"
  },
  {
    "variant_description": "V8Q",
    "folding stability dG": "2.35 kcal/mol"
  },
  {
    "variant_description": "Y21A",
    "folding stability dG": "1.3 kcal/mol"
  },
  {
    "variant_description": "G30P",
    "folding stability dG": "1.04 kcal/mol"
  },
  {
    "variant_description": "V10N",
    "folding stability dG": "1.2 kcal/mol"
  },
  {
    "variant_description": "Q39V",
    "folding stability dG": "2.99 kcal/mol"
  },
  {
    "variant_description": "N37D",
    "folding stability dG": "2.69 kcal/mol"
  },
  {
    "variant_description": "Q39T",
    "folding stability dG": "2.69 kcal/mol"
  },
  {
    "variant_description": "M1E",
    "folding stability dG": "1.3 kcal/mol"
  },
  {
    "variant_description": "F12P",
    "folding stability dG": "-0.871 kcal/mol"
  },
  {
    "variant_description": "W5M",
    "folding stability dG": "1.83 kcal/mol"
  },
  {
    "variant_description": "Q32F",
    "folding stability dG": "3.08 kcal/mol"
  },
  {
    "variant_description": "V8W",
    "folding stability dG": "2.79 kcal/mol"
  },
  {
    "variant_description": "K20F",
    "folding stability dG": "2.41 kcal/mol"
  },
  {
    "variant_description": "T4Y",
    "folding stability dG": "2.21 kcal/mol"
  },
  {
    "variant_description": "K20N",
    "folding stability dG": "2.58 kcal/mol"
  },
  {
    "variant_description": "K43T",
    "folding stability dG": "3.14 kcal/mol"
  },
  {
    "variant_description": "L29E",
    "folding stability dG": "1.33 kcal/mol"
  },
  {
    "variant_description": "T11G",
    "folding stability dG": "2.05 kcal/mol"
  },
  {
    "variant_description": "G6T",
    "folding stability dG": "1.3 kcal/mol"
  },
  {
    "variant_description": "E17C",
    "folding stability dG": "3.18 kcal/mol"
  },
  {
    "variant_description": "W5A",
    "folding stability dG": "1.17 kcal/mol"
  },
  {
    "variant_description": "L35R",
    "folding stability dG": "2.13 kcal/mol"
  },
  {
    "variant_description": "A22K",
    "folding stability dG": "0.426 kcal/mol"
  },
  {
    "variant_description": "Q2V",
    "folding stability dG": "2.86 kcal/mol"
  },
  {
    "variant_description": "F40Y",
    "folding stability dG": "3.2 kcal/mol"
  },
  {
    "variant_description": "G31D",
    "folding stability dG": "1.05 kcal/mol"
  },
  {
    "variant_description": "V25P",
    "folding stability dG": "-0.34 kcal/mol"
  },
  {
    "variant_description": "V25T",
    "folding stability dG": "1.93 kcal/mol"
  },
  {
    "variant_description": "F40L",
    "folding stability dG": "2.85 kcal/mol"
  },
  {
    "variant_description": "E23M",
    "folding stability dG": "2.68 kcal/mol"
  },
  {
    "variant_description": "A18M",
    "folding stability dG": "0.885 kcal/mol"
  },
  {
    "variant_description": "T11D",
    "folding stability dG": "1.99 kcal/mol"
  },
  {
    "variant_description": "I42W",
    "folding stability dG": "1.13 kcal/mol"
  },
  {
    "variant_description": "K24F",
    "folding stability dG": "3.2 kcal/mol"
  },
  {
    "variant_description": "W5F",
    "folding stability dG": "2.53 kcal/mol"
  },
  {
    "variant_description": "L29Q",
    "folding stability dG": "1.58 kcal/mol"
  },
  {
    "variant_description": "R27L",
    "folding stability dG": "2.75 kcal/mol"
  },
  {
    "variant_description": "V10G",
    "folding stability dG": "0.582 kcal/mol"
  },
  {
    "variant_description": "L29K",
    "folding stability dG": "1.36 kcal/mol"
  },
  {
    "variant_description": "M1V",
    "folding stability dG": "3.11 kcal/mol"
  },
  {
    "variant_description": "N7L",
    "folding stability dG": "2.27 kcal/mol"
  },
  {
    "variant_description": "E16Y",
    "folding stability dG": "2.77 kcal/mol"
  },
  {
    "variant_description": "R27G",
    "folding stability dG": "2.13 kcal/mol"
  },
  {
    "variant_description": "K43H",
    "folding stability dG": "2.66 kcal/mol"
  },
  {
    "variant_description": "G38W",
    "folding stability dG": "1.24 kcal/mol"
  }
]
